Each recorded value in this set is attributed to ChEMBL document CHEMBL5728757.

target: Acetyl-CoA carboxylase 1 (Homo sapiens); assay: etermination of IC50 of Inhibition of Enzymatic Activity of ACC1 and ACC2 by the Compound of the Present Disclosure: The degree of inhibition of the enzymatic activity of recombinant human ACC1, ACC2 proteins under in-vitro conditions by the preferred compounds of the present disclosure is determined by the following method.The principle of the method was based on the reaction of ACC protein-catalyzed acetyl-CoA to form malonyl-CoA. ATP was consumed during this reaction and ADP was produced. The produced ADP was reconverted into ATP by using ADP-Glo™ Kinase Kit from Promega. This part of ATP reacted with the luciferase-fluorescence in the kit, and generated chemiluminescent signals. Thus, by measuring the intensity of chemiluminescent signal, the amount of ADP produced in the catalytic reaction was reflected, thereby indirectly determining the enzymatic activity of ACC protein and the effect of the tested compound on the enzymatic activity. The main reagents used included ACC1, ACC2 proteins (purchased from BPS bioscience, ACC1 Art. No. 50200, ACC2 Art. No. 50201), acetyl-CoA (acetyl-CoA, purchased from Sigma, Art. No. A2056), NaHCO3 (purchased from Sigma, Art. No. S6014), ADP-Glo™ Kinase assay kit (purchased from Promega, Art. No. V9102).The test procedure was briefly described as follows: firstly, a 1× buffer solution required for the reaction was prepared, comprising: 50 mM HEPES (pH7.4 purchased from Invitrogen, Art. No. 15630), 2 mM magnesium chloride (MgCl2, purchased from Sigma, Art. No. M1028), 2 mM potassium citrate (Potassium citrate, purchased from Sigma, Art. No. 89306), 0.01% Brij-35 detergent (purchased from Merck, Art. No. 203728), 2 mM DTT (purchased from Sigma, Art. No. D0632). The test compound powder was dissolved in DMSO to prepare a stock solution having a concentration of 10 mM, followed by three-fold dilution to prepare the concentration required for the test, and each compound was set at 10 concentration points ranging from 10 μm to 0.5 nM. Firstly, appropriate amount of ACC protein (2 nM) was added to a 384-well microplate, and then diluted test compound solutions were added to each well. A duplicate well was provided at each concentration, and a solution control group (blank group) and a negative control group (DMSO group) were set at the same time. The 384-well plates were then shaken on a microwell plate oscillator and incubated for 15 minutes at room temperature. Thereafter, a substrate mixture containing ATP, acetyl-CoA and NaHCO3 which was diluted with the aforementioned buffer solution was added to each well to start the reaction, and the final concentrations of the three components were respectively ATP 20 μM, acetyl-CoA 10 μM, and NaHCO3 30 mM. After reacting for 30 minutes at room temperature, the corresponding reaction solution and detection solution were added to each well according to the method in the specification of ADP-Glo™ Kinase assay kit (referring to the specification of the kit for specific methods). Finally, the relative light unit (RLU) values of each well were tested using an Envision 2104 multi-function microplate reader (Perkin Elmer). The percentage inhibition rate of a compound at a concentration on ACC enzyme activity was calculated by the following formula:Inhibition rate %=[(RLU average value of negative control wells−RLU average value of blank control wells)−(RLU average values of test wells−RLU average values of blank control wells)]/(RLU average values of negative control wells−RLU average values of blank control wells)*100Finally, nonlinear regression analysis of the logarithm of the concentration of the compound and the percentage inhibition rate of the corresponding concentration was carried out in the GraphPad Prism5 software to obtain the half maximal inhibitory concentration (IC50) of the compound.
pIC50: −log10 of the molar value.

[
  {
    "Smiles Representation": "CCOc1ccc(F)cc1[C@H](Cn1c(=O)n(C(C)(C)C(N)=O)c(=O)c2c(C)c(C#N)sc21)OC1CCOCC1",
    "pIC50": 7.88
  }
]
